# Test System: T1, Region II of the P. knowlesi Duffy antigen binding protein (alpha) expressed on the Cos7 cell surface (Plasmodium knowlesi; Herpes simplex …, UniProt P22545)
# T1 sequence: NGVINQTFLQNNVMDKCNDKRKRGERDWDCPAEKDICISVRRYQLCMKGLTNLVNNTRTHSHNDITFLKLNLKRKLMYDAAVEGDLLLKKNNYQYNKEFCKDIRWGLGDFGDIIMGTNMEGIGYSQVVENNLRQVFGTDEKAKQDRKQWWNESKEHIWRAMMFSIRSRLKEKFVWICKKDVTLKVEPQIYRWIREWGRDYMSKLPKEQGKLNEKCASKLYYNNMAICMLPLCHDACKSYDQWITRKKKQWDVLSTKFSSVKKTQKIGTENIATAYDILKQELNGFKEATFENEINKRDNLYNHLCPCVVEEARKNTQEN
pIC50: −log10 of the molar value.
Readout: pIC50

Binder	Measurement
AELSPSTQNSSQLNSDLWNFSYDGNDSFPDVDYD [RHPEP34]	5.26
